Each item that follows carries a reported Percent Effect.
# Test system: Wolbachia pipientis
# TEST_DESCRIPTION: Anti-Wolbachia Cell-Based Screen
# Type: functional
# Design: scale not given: in the data most compounds retested in dose-response had high values
# CONDITIONS: 5 µM
About 13,000 (27%) of roughly 48,000 compounds showed an effect of 50% or more. This is one part of the list.
VALUE_KIND: Percent Effect

COMPOUND	TESTED_TARGET	VALUE_KIND	RECORDED_RESULT
CCN(C)CC(C)Cn1cnc(-c2ccccc2)c1C (configuration not stated)	Wolbachia pipientis	Percent Effect	25.31%
CCNC(=O)CNC(=O)Nc1c(F)cc(F)cc1-c1ccccc1	Wolbachia pipientis	Percent Effect	120.1%
O=C(CNC(=O)Nc1cccc(Cl)c1SC(F)F)NC1CC1	Wolbachia pipientis	Percent Effect	-13.14%
COc1c(F)cccc1C(=O)NC(C)c1cnn(C)c1 (configuration not stated)	Wolbachia pipientis	Percent Effect	2.584%
COC(=O)c1cc(NS(=O)(=O)c2cn(C)cn2)c(F)cc1F	Wolbachia pipientis	Percent Effect	-3.496%
Cc1cccc(C(=O)N2CCN(S(C)(=O)=O)[C@@H](C)C2)c1C	Wolbachia pipientis	Percent Effect	-0.07044%
O=C1CC[C@H]2CN(C3CCOCC3)CC[C@H]2N1CCC1=CCCCC1	Wolbachia pipientis	Percent Effect	14.62%
O=C(CNC(=O)Nc1c(F)cccc1Oc1ccccc1)NC1CC1	Wolbachia pipientis	Percent Effect	-0.6876%
Cc1cc(N2CCCCC2Cn2nc(C)cc2C)n2ncnc2n1 (configuration not stated)	Wolbachia pipientis	Percent Effect	-7.962%
Cc1cc(N2CCCC2Cn2nc(C)cc2C)n2ncnc2n1 (configuration not stated)	Wolbachia pipientis	Percent Effect	10.49%
Cc1cc(-n2cnnn2)n2ncnc2n1	Wolbachia pipientis	Percent Effect	118.9%
N#Cc1cccnc1N1CCCC(CO)(Cc2ccccc2F)C1 (configuration not stated)	Wolbachia pipientis	Percent Effect	12.54%
